target: T1, human G-protein-coupled receptor family C group 5 member D (GPRC5D) (human, UniProt Q9NZD1 1-345); assay: FACS, CHO-K1/GPRC5D
T1 construct: whole, on cells; also called human GPRC5D protein
T1 sequence (Q9NZD1 whole entry): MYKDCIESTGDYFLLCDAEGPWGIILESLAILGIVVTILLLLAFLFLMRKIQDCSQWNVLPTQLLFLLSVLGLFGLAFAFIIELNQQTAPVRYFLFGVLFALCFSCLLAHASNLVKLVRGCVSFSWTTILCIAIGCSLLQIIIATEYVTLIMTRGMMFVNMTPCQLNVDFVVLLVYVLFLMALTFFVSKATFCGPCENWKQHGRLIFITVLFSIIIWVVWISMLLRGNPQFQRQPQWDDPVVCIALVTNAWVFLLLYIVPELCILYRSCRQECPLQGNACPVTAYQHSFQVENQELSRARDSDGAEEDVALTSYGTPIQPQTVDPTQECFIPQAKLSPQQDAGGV
parameter.measured: LogEC50

binder	endpoint.result
6-H3L3 (antibody, V domains shown, humanized 6G10D9, VH v3 x VL v3) VH: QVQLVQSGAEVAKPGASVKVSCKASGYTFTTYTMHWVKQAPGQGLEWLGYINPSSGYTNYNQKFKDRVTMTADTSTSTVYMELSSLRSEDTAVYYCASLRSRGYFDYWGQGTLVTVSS VL: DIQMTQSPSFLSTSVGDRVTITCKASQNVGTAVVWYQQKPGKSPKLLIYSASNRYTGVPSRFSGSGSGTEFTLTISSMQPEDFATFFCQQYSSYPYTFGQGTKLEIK	0.955
6-H4L1 (antibody, V domains shown, humanized 6G10D9, VH v4 x VL v1) VH: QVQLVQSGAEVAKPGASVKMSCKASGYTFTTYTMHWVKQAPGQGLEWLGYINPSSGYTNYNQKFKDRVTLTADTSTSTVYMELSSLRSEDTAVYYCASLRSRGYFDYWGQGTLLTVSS VL: DIQLTQSPSFLSASVGDRVTITCKASQNVGTAVVWYQQKPGKAPKLLIYSASNRYTGVPSRFSGSGSGTEFTLTISSLQPEDFATYYCQQYSSYPYTFGQGTKLEIK	1.65
6-H4L3 (antibody, V domains shown, humanized 6G10D9, VH v4 x VL v3) VH: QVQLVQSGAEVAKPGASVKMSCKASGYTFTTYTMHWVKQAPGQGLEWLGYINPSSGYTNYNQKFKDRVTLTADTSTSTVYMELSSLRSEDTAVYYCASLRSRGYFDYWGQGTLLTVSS VL: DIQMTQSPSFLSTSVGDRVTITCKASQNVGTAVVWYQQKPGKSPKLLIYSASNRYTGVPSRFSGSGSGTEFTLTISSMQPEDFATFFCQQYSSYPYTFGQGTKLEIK	0.905

Measured values drawn from patent US12281162 for this set.
